Biological target: Lysine-specific histone demethylase 1A (Homo sapiens, UniProt O60341)
pIC50: −log10 of the molar value.
test_readout: pIC50

Problem: I am curious: what pIC50 value has been reported for COC(=O)N(C)c1cc(-c2c(-c3ccc(C#N)cc3)nc(OC[C@@H]3CCCN(C)C3)c3nccn23)ccc1C ?
Solution: > 7.30
